test system: Salmonella typhimurium TA1537; assay: Ames test (reverse mutation test), TA1537; assay type: cell-based; details: S9 Mix +; dose 5000 µg/plate
measuredQuantity: Number of revertant colonies TA1537

1) Nc1cc(-c2cccc(OCC(F)(F)F)c2)n(-c2ccc(F)cc2)n1 [Metabolite E]: 0
2) Cc1cccc(-n2nc(N)cc2-c2cccc(OC(F)(F)F)c2)c1 [Metabolite H]: 15
3) Nc1cc(-c2cccc(OC(F)(F)F)c2)n(-c2cccc(F)c2)n1 [Metabolite G]: 0
4) Cc1ccc(-n2nc(N)cc2-c2cccc(OCC(F)(F)F)c2)cc1 [Metabolite F]: 3

====

We begin with a simple list: items and their reported Number of revertant colonies WP2uvrA.
tested on: Escherichia coli WP2uvrA; assay: Ames test (reverse mutation test), WP2uvrA; type: cell-based; settings: S9 Mix +; dose 2.3 µg/plate
measuredQuantity: Number of revertant colonies WP2uvrA

1. Cc1ccc(-n2nc(N)cc2-c2cccc(OCC(F)(F)F)c2)cc1 [Metabolite F]: 25
2. Nc1cc(-c2cccc(OC(F)(F)F)c2)n(-c2cccc(F)c2)n1 [Metabolite G]: 34
3. Nc1cc(-c2cccc(OCC(F)(F)F)c2)n(-c2ccc(F)cc2)n1 [Metabolite E]: 26
4. Cc1cccc(-n2nc(N)cc2-c2cccc(OC(F)(F)F)c2)c1 [Metabolite H]: 23

====

test system: Salmonella typhimurium TA98; assay: Ames test (reverse mutation test), TA98; assay type: cell-based; details: S9 Mix +; dose 556 µg/plate
measuredQuantity: Number of revertant colonies TA98

1) Cc1ccc(-n2nc(N)cc2-c2cccc(OCC(F)(F)F)c2)cc1 [Metabolite F]: 151
2) Nc1cc(-c2cccc(OC(F)(F)F)c2)n(-c2cccc(F)c2)n1 [Metabolite G]: 12
3) Nc1cc(-c2cccc(OCC(F)(F)F)c2)n(-c2ccc(F)cc2)n1 [Metabolite E]: 77
4) Cc1cccc(-n2nc(N)cc2-c2cccc(OC(F)(F)F)c2)c1 [Metabolite H]: 56

====

test system: Salmonella typhimurium TA1537; test: Ames test (reverse mutation test), TA1537; assay type: cell-based; settings: TA1537, +S9 mix, 62 µg/plate
Number of revertant colonies by entry:
measuredQuantity: Number of revertant colonies

1. CC(C)(OCc1cc(F)cc(-c2cc(N)nn2-c2ccc(F)cc2)c1)C(F)(F)F [Metabolite D]: 18
2. CC(C)(C)Oc1cccc(-c2cc(N)nn2-c2ccccc2)c1 [Metabolite C]: 9
3. Nc1cc(-c2cc(F)cc(OC(F)(F)F)c2)n(-c2cncc(C(F)(F)F)c2)n1 [Metabolite 5]: 12
4. CC(C)(C)Oc1cc(F)cc(-c2cc(N)nn2C(F)(F)F)c1 [Metabolite 1]: 6

====

system: Escherichia coli WP2uvrA; experiment: Ames test (reverse mutation test), WP2uvrA; format: cell-based; details: S9 Mix -; dose 1667 µg/plate
Given measured Number of revertant colonies WP2uvrA, output Fulfilled if it is greater than or equal to 10 and Not fulfilled if not.

1) Nc1cc(-c2cccc(OC(F)(F)F)c2)n(-c2cccc(F)c2)n1 [Metabolite G]: Fulfilled
2) Cc1ccc(-n2nc(N)cc2-c2cccc(OCC(F)(F)F)c2)cc1 [Metabolite F]: Not fulfilled
3) Nc1cc(-c2cccc(OCC(F)(F)F)c2)n(-c2ccc(F)cc2)n1 [Metabolite E]: Fulfilled
4) Cc1cccc(-n2nc(N)cc2-c2cccc(OC(F)(F)F)c2)c1 [Metabolite H]: Fulfilled
5) CC(C)(OCc1cc(F)cc(-c2cc(N)nn2-c2ccc(F)cc2)c1)C(F)(F)F [Metabolite D]: Fulfilled

====

tested on: Salmonella typhimurium TA100; test: Ames test (reverse mutation test), TA100; type: cell-based; conditions: S9 Mix -; dose 2.3 µg/plate
Classify: class 1 when Number of revertant colonies TA100 is strictly less than 100; class 0 when Number of revertant colonies TA100 is not.

1) Cc1ccc(-n2nc(N)cc2-c2cccc(OCC(F)(F)F)c2)cc1 [Metabolite F]: class 0
2) Nc1cc(-c2cccc(OCC(F)(F)F)c2)n(-c2ccc(F)cc2)n1 [Metabolite E]: class 0
3) Cc1cccc(-n2nc(N)cc2-c2cccc(OC(F)(F)F)c2)c1 [Metabolite H]: class 0
4) Nc1cc(-c2cccc(OC(F)(F)F)c2)n(-c2cccc(F)c2)n1 [Metabolite G]: class 1

====

System: Salmonella typhimurium TA98
Assay: Ames test (reverse mutation test), TA98
Type: cell-based
Conditions: S9 Mix -; dose 2.3 µg/plate
Method: The solvent used herein was dimethyl sulfoxide (DMSO, 100 µL/plate). The mixtures were preincubated at 37° C. for 20 minutes while shaking. […] Two plates per treatment were used.
The following compounds are listed with their measured Number of revertant colonies TA98 values.
measuredQuantity: Number of revertant colonies TA98

1. Nc1cc(-c2cccc(OCC(F)(F)F)c2)n(-c2ccc(F)cc2)n1 [Metabolite E]: 26
2. Cc1ccc(-n2nc(N)cc2-c2cccc(OCC(F)(F)F)c2)cc1 [Metabolite F]: 25
3. Nc1cc(-c2cccc(OC(F)(F)F)c2)n(-c2cccc(F)c2)n1 [Metabolite G]: 31
4. CC(C)(OCc1cc(F)cc(-c2cc(N)nn2-c2ccc(F)cc2)c1)C(F)(F)F [Metabolite D]: 27
5. Cc1cccc(-n2nc(N)cc2-c2cccc(OC(F)(F)F)c2)c1 [Metabolite H]: 18

====

test system: Salmonella typhimurium TA100; assay: Ames test (reverse mutation test), TA100; assay type: cell-based; conditions: S9 Mix +; dose 556 µg/plate
measuredQuantity: Number of revertant colonies TA100

1) Nc1cc(-c2cccc(OCC(F)(F)F)c2)n(-c2ccc(F)cc2)n1 [Metabolite E]: 1082
2) Cc1ccc(-n2nc(N)cc2-c2cccc(OCC(F)(F)F)c2)cc1 [Metabolite F]: 1288
3) Nc1cc(-c2cccc(OC(F)(F)F)c2)n(-c2cccc(F)c2)n1 [Metabolite G]: 82
4) Cc1cccc(-n2nc(N)cc2-c2cccc(OC(F)(F)F)c2)c1 [Metabolite H]: 373

====

This listing pairs molecules with measured Number of revertant colonies TA1537.
test system: Salmonella typhimurium TA1537; assay: Ames test (reverse mutation test), TA1537; format: cell-based; details: S9 Mix -; dose 5000 µg/plate
measuredQuantity: Number of revertant colonies TA1537

1. CC(C)(OCc1cc(F)cc(-c2cc(N)nn2-c2ccc(F)cc2)c1)C(F)(F)F [Metabolite D]: 8
2. Nc1cc(-c2cccc(OC(F)(F)F)c2)n(-c2cccc(F)c2)n1 [Metabolite G]: 0
3. Cc1ccc(-n2nc(N)cc2-c2cccc(OCC(F)(F)F)c2)cc1 [Metabolite F]: 0
4. Cc1cccc(-n2nc(N)cc2-c2cccc(OC(F)(F)F)c2)c1 [Metabolite H]: 2
5. Nc1cc(-c2cccc(OCC(F)(F)F)c2)n(-c2ccc(F)cc2)n1 [Metabolite E]: 0

====

Tested on: Escherichia coli WP2uvrA
Test: Ames test (reverse mutation test), WP2uvrA
Type: cell-based
Settings: S9 Mix -; dose 556 µg/plate
Protocol: The solvent used herein was dimethyl sulfoxide (DMSO, 100 µL/plate). The mixtures were preincubated at 37° C. for 20 minutes while shaking. […] Two plates per treatment were used.
measuredQuantity: Number of revertant colonies WP2uvrA

1) CC(C)(OCc1cc(F)cc(-c2cc(N)nn2-c2ccc(F)cc2)c1)C(F)(F)F [Metabolite D]: 16
2) Nc1cc(-c2cccc(OCC(F)(F)F)c2)n(-c2ccc(F)cc2)n1 [Metabolite E]: 10
3) Cc1cccc(-n2nc(N)cc2-c2cccc(OC(F)(F)F)c2)c1 [Metabolite H]: 17
4) Cc1ccc(-n2nc(N)cc2-c2cccc(OCC(F)(F)F)c2)cc1 [Metabolite F]: 74
5) Nc1cc(-c2cccc(OC(F)(F)F)c2)n(-c2cccc(F)c2)n1 [Metabolite G]: 10

====

Number of revertant colonies values by entry
system: Escherichia coli WP2uvrA; test: Ames test (reverse mutation test), WP2uvrA; type: cell-based; details: WP2uvrA, +S9 mix, 556 µg/plate
measuredQuantity: Number of revertant colonies

1) CC(C)(C)Oc1cc(F)cc(-c2cc(N)nn2C(F)(F)F)c1 [Metabolite 1]: 18
2) CC(C)(C)Oc1cccc(-c2cc(N)nn2-c2ccccc2)c1 [Metabolite C]: 8
3) CC(C)(OCc1cc(F)cc(-c2cc(N)nn2-c2ccc(F)cc2)c1)C(F)(F)F [Metabolite D]: 32
4) Nc1cc(-c2cc(F)cc(OC(F)(F)F)c2)n(-c2cncc(C(F)(F)F)c2)n1 [Metabolite 5]: 18

====

system: Salmonella typhimurium TA100; experiment: Ames test (reverse mutation test), TA100; format: cell-based; settings: S9 Mix +; dose 6.9 µg/plate
Entries annotated with measured Number of revertant colonies TA100
measuredQuantity: Number of revertant colonies TA100

1. Nc1cc(-c2cccc(OC(F)(F)F)c2)n(-c2cccc(F)c2)n1 [Metabolite G]: 248
2. Cc1cccc(-n2nc(N)cc2-c2cccc(OC(F)(F)F)c2)c1 [Metabolite H]: 1035
3. Cc1ccc(-n2nc(N)cc2-c2cccc(OCC(F)(F)F)c2)cc1 [Metabolite F]: 1417
4. Nc1cc(-c2cccc(OCC(F)(F)F)c2)n(-c2ccc(F)cc2)n1 [Metabolite E]: 2032
